Where these numbers come from: patent US20240368139A1

Entries and their IC50 values follow.
# Test system: H3K9me2 in HCT116 cells
# test_name: HCT116 H3K9me2 in-cell western assay
# Type: cell-based
# condition_details: Homo sapiens, HCT-116, 72 h, HCT116 cells, 72 hours incubation; read-out: H3K9me2 ICW IC50

compound | data_value
Cc1cc(N)nc(Nc2cc3c(c(OCCCN4CCCC4)c2)OCC3)n1 | 500 to 2000 nM
CNc1cc(C)nc(Nc2cc3c(c(C4=CCNCCC4)c2Cl)OCCO3)n1 | < 100 nM
[2H]Cc1cc(NC([2H])([2H])[2H])nc(Nc2cc3c(c(C4=CCNCCC4)c2)OCO3)n1 | < 100 nM
CNc1cc(C)nc(Nc2cc(OCCCN3CCCC3)c3oc(=O)[nH]c3c2)n1 | > 2000 nM
CNc1cc(C)nc(Nc2cc3c(c(C4=CCN(C(C)C)CCC4)c2F)OCC3)n1 | < 100 nM

Per the record, [2H]Cc1nc(Nc2cc3c(c(C4=CCNCCC4)c2F)OCC3)nc(NC)c1F has IC50 of < 100 nM

Per the record, CNc1nc(Nc2cc3c(c(C4=CCNCCC4)c2F)OCC3)nc(C)c1OC has IC50 of < 100 nM

Per the record, CNc1cc(Nc2cc3c(c(C4=CCN(C)CCC4)c2F)OCO3)nc(C)c1F has IC50 of 100 to 500 nM

----------
Entries and their pIC50 values follow.
# Test system: H3K9me2 in HCT116 cells
# test_name: HCT116 H3K9me2 in-cell western assay
# Type: cell-based
# condition_details: Homo sapiens, HCT-116, 72 h, HCT116 cells, 72 hours incubation; read-out: H3K9me2 ICW IC50
pIC50: −log10 of the molar value.

See these solved cases before continuing.
smiles_notation | tgt | data_value
[2H]C([2H])([2H])Nc1cc(C)nc(Nc2cc3c(c(C4=CCNCCC4)c2)OCCC3)n1 | H3K9me2 in HCT116 cells | > 7.00
COCCCNc1cc(C)nc(Nc2cc3c(c(C4=CCN(C)CCC4)c2)OCC3)c1 | H3K9me2 in HCT116 cells | 5.70 to 6.30
CNc1cc(C)nc(Nc2cc3c(c(C4=CCNCCC4)c2OC)OCC3)n1 | H3K9me2 in HCT116 cells | 6.30 to 7.00

Now look at this one.
# lookup: CNc1cc(C)nc(Nc2cc3c(c(C4=CCNCCC4)c2F)OCC3)n1 on H3K9me2 in HCT116 cells, pIC50 = > 7.00

----------
# tgt: human EHMT2 913-1193 (Homo sapiens, UniProt Q96KQ7)
# Sequence (Q96KQ7 913-1193): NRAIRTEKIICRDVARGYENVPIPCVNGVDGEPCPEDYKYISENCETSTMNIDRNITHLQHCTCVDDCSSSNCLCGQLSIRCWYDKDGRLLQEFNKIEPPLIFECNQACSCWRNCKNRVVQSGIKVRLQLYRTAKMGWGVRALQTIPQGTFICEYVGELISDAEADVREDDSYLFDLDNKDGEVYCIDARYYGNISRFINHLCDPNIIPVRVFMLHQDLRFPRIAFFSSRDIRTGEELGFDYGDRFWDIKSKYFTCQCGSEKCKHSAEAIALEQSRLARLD
# test_name: EHMT2 enzyme assay on histone peptide substrate (3H-SAM SPA)
# condition_details: EHMT2 IC50, recombinant human EHMT2 913-1193, histone peptide substrate
pIC50: −log10 of the molar value.
Entries and their pIC50 values follow.

See these solved cases before continuing.
compound | pIC50
CNc1cc(C)nc(Nc2cc3c(c(C4=CCNCCC4)c2F)OCC3(C)C)n1 | 6.30 to 7.00
CNc1cc(C)nc(Nc2cc3c(c(C4=CCN(C)CCC4)c2)OCCO3)n1 | 6.30 to 7.00
CNc1cc(C)nc(Nc2cc3c(c(N4CCCN(C)CC4)c2)OCC3)n1 | 5.70 to 6.30

# lookup: CNc1cc(C)nc(Nc2cc3c(c(C4=CCNC(C)CC4)c2C)OCC3)n1 (single isomer, unassigned) [Compound 383] on human EHMT2 913-1193 (Homo sapiens, UniProt Q96KQ7), pIC50 = > 7.00

# lookup: CNc1cc(Nc2cc3c(c(C4=CCNCCC4)c2F)OCO3)nc(C)c1F on human EHMT2 913-1193 (Homo sapiens, UniProt Q96KQ7), pIC50 = > 7.00

# lookup: CNc1cc(C)nc(Nc2cc3c(c(C4=CCNC(C)CC4)c2Cl)OCO3)n1 (single isomer, unassigned) [Compound 356-a] on human EHMT2 913-1193 (Homo sapiens, UniProt Q96KQ7), pIC50 = < 5.70

# lookup: CNc1cc(Nc2cc3c(c(C4=CCN(C)CCC4)c2F)OCCC3)nc(C)c1F on human EHMT2 913-1193 (Homo sapiens, UniProt Q96KQ7), pIC50 = 6.30 to 7.00

# lookup: CNc1cc(C)nc(Nc2cc3c(c([C@H]4C[C@H]5CNC[C@H]5C4)c2)OCC3)n1 on human EHMT2 913-1193 (Homo sapiens, UniProt Q96KQ7), pIC50 = 6.30 to 7.00
